Biological target: T1, Bbc1, P47068
T1 sequence (P47068 1-78, looked up): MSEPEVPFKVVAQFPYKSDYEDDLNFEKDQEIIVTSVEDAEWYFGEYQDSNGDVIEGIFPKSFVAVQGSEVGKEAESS
Test: SPOT array
Conditions: median of control spots 796
endpoint label: SPOT intensity
// response body must contain only the number

Known SPOT intensity results, listed for orientation:
SLSRRRFSLPSMPNV    98
NRARYLPQNPDIIAG    2
NFKRLLPRDPSEKSS    51

Ask: Endpoint output: SPOT intensity of `MFLISPPASPPPEFD` . Value?
Reply: 0

// data source = paper PMC2756588
